Test: The drug is tested on the gut metagenome community of T-02 with ENA study accession number: PRJEB31790 for biotransformation under anaerobic condition. The drug concentrations were measured over 7 timepoints collected between 0 and 12 hours of incubation by liquid-chromatography-coupled mass spectrometry (LC–MS)
Format: ADME
Parameters: dose 5 uM, timepoint 0, 0.75, 1.5, 3, 6, 9, 12 hours
Details: 5 µM
MEASUREMENT KIND: Bacterial Biotransformation

C[C@]12C=CC(=O)C=C1CC[C@@H]1[C@@H]2C(=O)C[C@@]2(C)[C@H]1CC[C@]2(O)C(=O)CO [PREDNISONE]; Compound metabolized
CO[C@H]1C[C@@H]2CC[C@@H](C)[C@@](O)(O2)C(=O)C(=O)N2CCCC[C@H]2C(=O)O[C@H]([C@H](C)C[C@@H]2CC[C@@H](OCCO)[C@H](OC)C2)CC(=O)[C@H](C)/C=C(\C)[C@@H](O)[C@@H](OC)C(=O)[C@H](C)C[C@H](C)/C=C/C=C/C=C/1C [EVEROLIMUS]; Compound metabolized
C[C@H]1C[C@H]2[C@@H]3CCC4=CC(=O)C=C[C@]4(C)[C@@]3(F)[C@@H](O)C[C@]2(C)[C@@]1(O)C(=O)CO [BETAMETHASONE]; Compound metabolized
CO[C@H]1C[C@@H]2CC[C@@H](C)[C@@](O)(O2)C(=O)C(=O)N2CCCC[C@H]2C(=O)O[C@H]([C@H](C)C[C@@H]2CC[C@@H](O)[C@H](OC)C2)CC(=O)[C@H](C)/C=C(\C)[C@@H](O)[C@@H](OC)C(=O)[C@H](C)C[C@H](C)/C=C/C=C/C=C/1C [SIROLIMUS]; Compound metabolized

###

Experiment: The drug is tested on the gut metagenome community of A-07 with ENA study accession number: PRJEB31790 for biotransformation under anaerobic condition. The drug concentrations were measured over 7 timepoints collected between 0 and 12 hours of incubation by liquid-chromatography-coupled mass spectrometry (LC–MS)
Format: ADME
Set-up: dose 5 uM, timepoint 0, 0.75, 1.5, 3, 6, 9, 12 hours
Conditions: 5 µM
MEASUREMENT KIND: Bacterial Biotransformation

# count of solved cases: 5
CN(Cc1cnc2nc(N)nc(N)c2n1)c1ccc(C(=O)N[C@@H](CCC(=O)O)C(=O)O)cc1 [METHOTREXATE]; Compound metabolized
C[C@]12C=CC(=O)C=C1CC[C@@H]1[C@@H]2C(=O)C[C@@]2(C)[C@H]1CC[C@]2(O)C(=O)CO [PREDNISONE]; Compound metabolized
CCC(C)(C)C(=O)O[C@H]1C[C@@H](C)C=C2C=C[C@H](C)[C@H](CC[C@@H]3C[C@@H](O)CC(=O)O3)[C@H]21 [SIMVASTATIN]; Compound NOT metabolized
COc1c(C)c2c(c(O)c1C/C=C(\C)CCC(=O)O)C(=O)OC2 [MYCOPHENOLIC ACID]; Compound NOT metabolized
C[C@]12CCC(=O)C=C1CC[C@@H]1[C@@H]2C(=O)C[C@@]2(C)[C@H]1CC[C@]2(O)C(=O)CO [CORTISONE]; Compound metabolized

Request: Give its Bacterial Biotransformation value. Item: CNC(=C[N+](=O)[O-])NCCSCc1ccc(CN(C)C)o1 [RANITIDINE]
Response: Compound NOT metabolized

Request: Quick one: Bacterial Biotransformation for CCOC(=O)[C@H](CCc1ccccc1)N[C@@H](C)C(=O)N1[C@H](C(=O)O)C[C@@H]2CCC[C@@H]21 ?
Response: Compound NOT metabolized
